target: GluN1/GluN2A NMDARs (Rattus norvegicus, UniProt P35439+Q00959); construct: expressed in transfected cells; host or cells: Xenopus laevis oocytes injected with cRNA (GluN1:GluN2 1:1); experiment: TEVC recordings of NMDAR currents from Xenopus laevis oocytes expressing GluN1/GluN2A; type: cell-based; settings: glutamate 30 μM; D-serine 10 μM; minimum unconstrained; read-out: IC50 (concentration giving 50% of the maximal achievable inhibition)
Sequence (Q00959 20-1464 limits assumed, other chains not shown): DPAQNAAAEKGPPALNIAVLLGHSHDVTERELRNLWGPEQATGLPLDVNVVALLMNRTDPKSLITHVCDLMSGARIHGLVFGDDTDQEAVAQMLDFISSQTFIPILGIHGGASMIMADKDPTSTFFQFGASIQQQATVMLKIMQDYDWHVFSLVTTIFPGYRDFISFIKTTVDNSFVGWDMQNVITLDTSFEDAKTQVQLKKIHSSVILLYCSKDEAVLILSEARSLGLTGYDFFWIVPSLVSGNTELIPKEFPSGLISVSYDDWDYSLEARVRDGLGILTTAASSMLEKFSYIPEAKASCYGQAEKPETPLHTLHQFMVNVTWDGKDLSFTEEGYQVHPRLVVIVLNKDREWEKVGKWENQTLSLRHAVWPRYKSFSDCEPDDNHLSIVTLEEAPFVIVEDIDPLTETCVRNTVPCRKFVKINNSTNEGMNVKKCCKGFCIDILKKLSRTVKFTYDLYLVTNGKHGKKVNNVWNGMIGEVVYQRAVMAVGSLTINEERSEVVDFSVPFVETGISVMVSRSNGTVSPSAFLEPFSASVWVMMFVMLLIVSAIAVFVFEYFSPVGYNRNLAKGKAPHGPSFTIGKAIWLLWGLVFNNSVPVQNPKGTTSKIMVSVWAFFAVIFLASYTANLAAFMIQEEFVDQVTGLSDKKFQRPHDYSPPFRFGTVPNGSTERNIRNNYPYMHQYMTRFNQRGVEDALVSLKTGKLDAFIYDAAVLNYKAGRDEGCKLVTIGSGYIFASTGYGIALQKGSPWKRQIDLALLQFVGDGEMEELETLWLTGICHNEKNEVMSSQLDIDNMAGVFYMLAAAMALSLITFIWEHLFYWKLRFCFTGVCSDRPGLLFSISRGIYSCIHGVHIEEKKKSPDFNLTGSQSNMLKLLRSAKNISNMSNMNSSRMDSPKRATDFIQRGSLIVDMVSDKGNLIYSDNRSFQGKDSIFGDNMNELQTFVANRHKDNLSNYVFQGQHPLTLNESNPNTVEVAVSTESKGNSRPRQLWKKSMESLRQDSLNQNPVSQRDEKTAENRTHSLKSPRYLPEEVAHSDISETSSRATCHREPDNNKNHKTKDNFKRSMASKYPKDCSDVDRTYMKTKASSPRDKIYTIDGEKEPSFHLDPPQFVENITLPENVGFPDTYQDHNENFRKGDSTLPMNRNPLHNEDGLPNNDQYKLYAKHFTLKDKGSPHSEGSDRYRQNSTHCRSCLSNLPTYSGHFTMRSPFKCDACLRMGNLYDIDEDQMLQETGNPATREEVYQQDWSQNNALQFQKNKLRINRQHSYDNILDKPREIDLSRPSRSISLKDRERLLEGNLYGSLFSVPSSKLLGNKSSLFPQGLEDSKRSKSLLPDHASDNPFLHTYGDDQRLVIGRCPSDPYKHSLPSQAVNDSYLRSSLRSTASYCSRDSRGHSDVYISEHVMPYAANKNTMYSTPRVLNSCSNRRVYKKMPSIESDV
result type: IC50 (nM)
Provide the reading as a plain figure in nM.

IC50 in this record for O=C(NNC(=O)c1ccc(CNS(=O)(=O)c2ccc(F)c(Cl)c2)cc1)c1ccccc1 : 816
